# testSummary: NCI Yeast Anticancer Drug Screen. Data for the bub3 strain (AID 167)
# experimentalParameters: S. cerevisiae bub3 mutant strain, at 50.0 µM
About 79,000 compounds went through this panel and 15% of them were active in at least one assay; those are over-represented in the sample as a whole. Calls of active or inactive are those of the source. No stated cut-off is given here; in the data, active means growth inhibition above about 70%; inactive means the rest.
Outcomes you can answer with include only these: class 1 (active), class 0 (inactive)

Q: Tell me the assay call for CC1(Cl)CC(C)(/C=C/Cl)C(Cl)CC1Cl (stereo not drawn) please.
Ans: class 0

Q: Please let me know the test result on file for COc1ccc(NP(=S)(Nc2ccc(OC)cc2)c2ccccc2)cc1 .
Ans: class 0

Q: Which outcome did this test record for the compound CCC1(O)C(=O)OCc2c1cc(C)[nH]c2=O (stereo not drawn) ?
Ans: class 0

Q: Kindly provide the recorded test outcome for the following compound: O=C(CBr)Nc1ccccc1Cl
Ans: class 1

Q: Lab log entry: CC(=O)C1C2c3ccccc3C(c3ccccc32)C1C (stereo not drawn) — outcome as called in the assay?
Ans: class 0

Continuing:
Q: Recorded call for CC1CCOC(=O)/C=C/C=C/C(=O)OC2CC3OC4C5OC5(C)C(O)CC4(COC(=O)C1O)C2(C)C31CO1 (stereo not drawn) ?
Ans: class 1

Q: Could you check what this test reported for [Cl][Hg][Cl].c1cnccn1 ?
Ans: class 1

Q: Please let me know the test result on file for CC(C)NCC(O)c1ccccc1Cl (stereo not drawn) .
Ans: class 0

Q: // param item: O=C1c2ccc3ccccc3c2CCC1N1CCCCC1 (stereo not drawn) ; yields the recorded call
Ans: class 1

Q: Hello, I am checking results. What call was entered for O/N=C/c1ccc2c(c1)OCO2 ?
Ans: class 0

Q: Recorded call for O=S(=O)(c1ccccc1)N1C2C3CCC(CC3)C21 (stereo not drawn) ?
Ans: class 1

Q: What call does the record list for ClCCCCCl ?
Ans: class 0

Q: Which result was noted for this compound in the test: N=C(N)SCc1ccccc1
Ans: class 0

###

# testSummary: NCI Yeast Anticancer Drug Screen. Data for the sgs1 mgt1 strain (AID 161);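 further: 0% = growth of cultures given vehicle only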
# experimentalParameters: S. cerevisiae sgs1 mgt1 strain, at 5.0 µM (retest, dose inferred, filed as 0.5), hits give high values
The panel holds about 79,000 compounds, 15% with a hit somewhere; the sample as a whole holds those more often.
Reported growth inhibition values follow for various compounds
Report only the number, with the unit % understood.

Q: // query growth inhibition value for entry CN(C)c1ccc(C2N(Cc3ccc(N(CCCl)CCCl)cc3Cl)CCCN2Cc2ccc(N(CCCl)CCCl)cc2Cl)cc1
Ans: 1

Q: Requested field: growth inhibition. Item: C1CC[N-]CC1.C1CC[N-]CC1.N#CO.[Ag]
Ans: 100

Q: Which growth inhibition is listed for O=C(Nc1ccccc1)c1cc([N+](=O)[O-])ccc1O ?
Ans: 2

Q: Sample O=C(O)C1C2c3cccc4cccc(c34)C12 (centres undefined) — what was its growth inhibition?
Ans: -56

Q: What does the data say about its growth inhibition? Entry: N#CN(Cc1ccccc1)C(c1ccccc1)(c1ccccc1)c1ccccc1.[Cl][Sn]([c]1ccccc1)([c]1ccccc1)[c]1ccccc1
Ans: 100

Q: Fill blank: measured growth inhibition of the compound COc1cc(C=Nc2cc[c]([Hg][O]C(C)=O)cc2)ccc1O is ____.
Ans: 2

Q: What value of measured growth inhibition is listed for CCC1(OC(=O)CN)C(=O)OCc2c1cc1n(c2=O)Cc2cc3ccccc3nc2-1 (centres undefined) ?
Ans: 62

Q: # get_value(readout='growth inhibition', item= CC(=O)C1CCC2C3CCC4=CC(=[N+]5CCCCC5)CCC4(C)C3CCC12C (centres undefined) )
Ans: 97

# input for lookup
Q: Bench note: what growth inhibition did CCOP(=O)(O)C(Nc1ccc(N=Nc2ccccc2)cc1)c1cccc(C(Nc2ccc(N=Nc3ccccc3)cc2)P(=O)(O)OCC)c1 (centres undefined) show?
Ans: 5

###

# testSummary: NCI Yeast Anticancer Drug Screen. Data for the rad18 strain (AID 177)
# experimentalParameters: S. cerevisiae rad18 mutant growth inhibition; at 33.0 µM
Compounds without any hit were thinned out: in the full panel of roughly 79,000, 15% have a hit. The source made the active and inactive calls. Rule as the data show it: active = growth inhibition above about 70%; inactive = the rest.
Parameter call: string, one of active, inactive

Here's what some known entries look like.
Q: Please indicate how the test categorized COC1C(O)C(C)OC(OC2C(Oc3cccc4c(O)c5c(=O)oc6ccc(C)c7c(=O)oc(c34)c5c67)OC(C)C(O)C2O)C1O (configuration not stated) .
Ans: inactive

Q: Which result was noted for this compound in the test: NCCc1ccc(OCc2ccccc2)c(OCc2ccccc2)c1
Ans: active

Q: What was the test verdict on N#CC(C#N)=Cc1ccc(C#N)cc1 ?
Ans: inactive

Q: Assay outcome for Cc1cccc(NC(=O)CBr)c1 : what was it?
Ans: active

Q: Give the logged outcome of this assay for the following compound: O=C(O)CCCOc1cc(Cl)c(Cl)cc1Cl
Ans: inactive

# input for lookup
Q: Would you mind telling me which call this test gave CN(CCc1ccc(Br)cc1)CCN1CCCCC1 ?
Ans: active

###

# testSummary: NCI Yeast Anticancer Drug Screen. Data for the mec2-1 strain (AID 157)
# experimentalParameters: S. cerevisiae mec2-1 strain, at 50.0 µM (retest, dose inferred, filed as 5.0), hits give high values
About 79,000 compounds went through this panel and 15% of them were active in at least one assay; those are over-represented in the sample as a whole.
Please mark True if the recorded growth inhibition is equal to or greater than 60%, and False if it falls below.

These solved cases illustrate the format of a correct answer.
Q: Is growth inhibition for CC(=O)O[C@H]1C[C@@H]2OC3C=C(C)CCC3(C)[C@@]1(C)[C@@]21CO1 (stereo not given in full) at or above 60%?
Ans: True

Q: Is it the case that CC(=O)OCC12CCC(C)=CC1OC1C3(O)N=C(C)OC3C2(C)C12CO2 (stereo not given) has growth inhibition reaching or exceeding 60%?
Ans: False

Q: Answer whether growth inhibition of C/C(CCl)=N/NC1=NC(c2ccccc2Cl)P(=O)(NCCCNP2(=O)SC(N/N=C(/C)CCl)=NC2c2ccccc2Cl)S1 (stereo not given) is greater than or equal to 60%.
Ans: False

Q: Assess whether reported growth inhibition for COC1(OC)C(Cl)=C(Cl)C(Cl)=C1Cl sits at 60% or higher.
Ans: True

***
Q: Could you verify whether the entry C[C@]12CC/C(=N\NC(=O)c3ccncc3)C[C@@H]1CC[C@@H]1[C@@H]2CC[C@]2(C)[C@@H](O)CC[C@@H]12 shows growth inhibition of no less than 60%?
Ans: False

###

Measured growth inhibition values are reported for all entries that follow.
# testSummary: NCI Yeast Anticancer Drug Screen. Data for the CLN2oe strain (AID 163);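 further: 0% = growth of vehicle-only control cultures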
# experimentalParameters: S. cerevisiae CLN2oe strain, at 1.2 µM, hits give high values
# Method: Growth inhibition of yeast strains with defined genetic alterations is measured as a screen for potential anti-cancer activity. Selected strains with alterations in DNA damage repair or cell cycle control were exposed to compounds and growth inhibition was measured relative to vehicle treated controls. The strain used in this assay is CLN2oe
About 79,000 compounds went through this panel and 15% of them were active in at least one assay; those are over-represented in the sample as a whole.
Just the number in %, nothing appended.

Q: # input compound: O=Cc1ccc(C(F)(F)F)cc1.[C-]#[O+].[C-]#[O+].[C-]#[O+].[Cr] ; wanted: its growth inhibition
Ans: 0

Q: Quick one: growth inhibition for CC[C@@]1(O)C(=O)OCc2c1cc1n(c2=O)Cc2cc3c(NC(=O)CN)cccc3nc2-1 ?
Ans: 0

***
Q: What value of growth inhibition has been reported for the following compound? CC(=O)O/C(=C1\C[C@H]2[C@@H]3CC=C4C[C@@H](OC(C)=O)CC[C@]4(C)[C@H]3CC[C@]2(C)C1=O)C(F)(F)F
Ans: -140

Q: Please give the measured growth inhibition for this compound: C/C(=N\O)c1ccc2ccc3ccccc3c2c1
Ans: -1

###

# testSummary: NCI Yeast Anticancer Drug Screen. Data for the rad50 strain (AID 155);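 further: 0% = growth of vehicle-only cultures of the same strain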
# experimentalParameters: S. cerevisiae rad50 strain growth inhibition; at 1.2 µM
This is part of a sample that, as a whole, favours compounds with a hit. Of some 79,000 tested, about 15% had one in any assay. Active and inactive are the calls of the source. Rule as the data show it: active = growth inhibition above about 70%; inactive = the rest.
Can you answer with just one of these options? true (1) (active), false (0) (inactive)

Example entries begin here.
Q: Just curious, what result did O=[N+]([O-])c1ccc(-n2nc3ccc4c(no[n+]4[O-])c3[n+]2[O-])c([N+](=O)[O-])c1 get here?
Ans: false (0)

Q: Per the records of this test, what outcome belongs to Oc1ccc(Cl)cc1Cc1ccccc1 ?
Ans: false (0)

Q: Assay outcome for Cc1ccc(P(c2ccc(C)cc2)c2ccc(C)cc2)cc1 : what was it?
Ans: false (0)

Q: Lab log entry: O=c1oc2ccccc2c(O)c1C(c1ccc2ccccc2c1)c1c(O)c2ccccc2oc1=O — outcome as called in the assay?
Ans: false (0)

Q: Field: outcome | Entry: [Pt].c1ccc(P(CCP(c2ccccc2)c2ccccc2)CCP(c2ccccc2)c2ccccc2)cc1
Ans: false (0)

---
Q: Returns: the outcome recorded for O=C1NC(=S)NC(=O)C1=Cc1ccc([N+](=O)[O-])o1 in this assay.
Ans: false (0)

Q: Recorded test call requested for C[CH2][Sn]1([CH2]C)[O]C2C(O)OC(CO)C(O)C2[O]1 (stereo unspecified)
Ans: false (0)

Q: Could you kindly confirm the outcome this assay logged for C[C@@]12CCC(=O)C=C1CC[C@H]1C2=CC[C@]2(C)C1CC[C@@]2(C)O (stereo partly specified) ?
Ans: false (0)

Q: Status in this test for Cc1c([N+](=O)[O-])oc2ccc3ccccc3c12 ?
Ans: false (0)

Q: Please state the recorded outcome for this compound: Br[Se]c1ccccn1
Ans: false (0)

Q: Per the assay record, what outcome was assigned to CC(C)CC(NC(=O)C(N)C(C)C)C(=O)NC(CCCCN)C(=O)Nc1ccc(N(CCCl)CCCl)cc1 (stereo unspecified) ?
Ans: false (0)

Q: Lab log entry: CCC1(OC(=O)CN)C(=O)OCc2c1cc1n(c2=O)Cc2cc3ccccc3nc2-1 (stereo unspecified) — outcome as called in the assay?
Ans: true (1)

Q: # lookup: test call for CC1=C(CO)C2=C(C)C3(CC3)[C@@](C)(O)C(=O)C2=C1
Ans: false (0)
